Can you tell me Population Mitotic Cells (%) for the items I'm about to list?
- Test system: U2OS
- experiment_description: Multiplex assay against U2OS
- Type: toxicity, cell-based
- condition_notes: human, 12 h, 10 µM, compound concentration 10 uM, number of replicates 2
Numbers only, in %.

// `C=CC(=O)Nc1ccc2[nH]c(=O)n(C3CCN(Cc4ccc(-c5ccc6c(c5)NC(=O)CO6)cc4)CC3)c2c1` : Population Mitotic Cells (%) value = 33

Need Population Mitotic Cells (%) for each of these compounds.
1. CN(C)CCN(Cc1ccc(-c2ccc(CNCCc3ccccc3)cc2)cc1)C(=O)CCC1CCCC1.Cl.Cl
2. Cc1cccc(S(=O)(=O)N(C)[C@H](C)CCN2CCC(C)CC2)c1.Cl

0
50
